- Method description: Lipophilicity, log P of the compound at pH 7.4
- Assay type: physicochemical
- Test conditions: buffer
Under this convention, Met denotes logD strictly below 4 and Not met denotes logD at or above 4.

Look over these answered cases.
{"Compound": "CC(=O)N[C@@H](Cc1cc(F)cc(F)c1)[C@H](O)CNC1(c2cccc(-n3cccn3)c2)CCOCC1", "Class": "Met"}
{"Compound": "CC(=O)N[C@@H](Cc1cc(F)cc(F)c1)[C@H](O)CNC1(c2cccc(C(C)(C)C)c2)CCOCC1", "Class": "Not met"}
{"Compound": "CC(=O)N[C@@H](Cc1cc(F)cc(F)c1)[C@H](O)CNC1(c2cccc(-n3cccn3)c2)CC1", "Class": "Met"}
{"Compound": "CC(=O)N[C@@H](Cc1cc(F)cc(F)c1)[C@H](O)CNC1(c2cccc(C(C)(CF)CF)c2)CC1", "Class": "Met"}
{"Compound": "C=C(c1cccc(C2(NC[C@@H](O)[C@H](Cc3cc(F)cc(F)c3)NC(C)=O)CC2)c1)C(F)(F)F", "Class": "Not met"}
{"Compound": "CC(=O)N[C@@H](Cc1cc(F)cc(F)c1)[C@H](O)CNC1(c2cccc(C(C)(C)C)c2)CC1", "Class": "Not met"}

Problem: Hello, is logD of the following compound strictly smaller than 4? CC(=O)N[C@@H](Cc1cc(F)cc(F)c1)[C@H](O)CNC(C)(C)c1cccc(C(C)(C)C)c1
Solution: Not met

Problem: Check if logD falls below 4 for CC(=O)N[C@@H](Cc1cc(F)cc(F)c1)[C@H](O)CN[C@]1(c2cccc(C(C)(C)C(F)F)c2)C[C@H]1C .
Solution: Not met

Problem: Lab log: compare recorded logD with 4; is it strictly lower for CC(=O)N[C@@H](Cc1cc(F)cc(F)c1)[C@H](O)CNC1(c2cccc(C3CCOC3)c2)CCOCC1 (stereo partly drawn) ?
Solution: Met

Problem: In the record for CC(=O)N[C@@H](Cc1cc(F)cc(F)c1)[C@H](O)CNC1(c2cccc(C(C)(C)C)c2)CCCCC1 , is logD less than 4?
Solution: Not met

====

- Target: Cytochrome P450 3A4 (Homo sapiens, UniProt P08684)
- Sequence (P08684 whole entry): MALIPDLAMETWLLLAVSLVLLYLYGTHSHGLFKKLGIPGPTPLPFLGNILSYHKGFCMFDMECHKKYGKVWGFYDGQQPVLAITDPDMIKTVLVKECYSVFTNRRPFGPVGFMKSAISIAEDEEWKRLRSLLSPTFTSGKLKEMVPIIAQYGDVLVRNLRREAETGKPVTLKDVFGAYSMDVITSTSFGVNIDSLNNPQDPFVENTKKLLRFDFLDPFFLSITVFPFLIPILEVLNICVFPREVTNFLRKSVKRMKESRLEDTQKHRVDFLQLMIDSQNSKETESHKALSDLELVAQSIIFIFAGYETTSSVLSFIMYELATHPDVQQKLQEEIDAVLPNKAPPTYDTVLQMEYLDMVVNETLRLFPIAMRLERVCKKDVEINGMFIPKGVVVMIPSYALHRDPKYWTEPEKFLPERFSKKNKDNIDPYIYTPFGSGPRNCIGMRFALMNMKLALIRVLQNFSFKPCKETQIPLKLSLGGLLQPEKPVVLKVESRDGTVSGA
- Method description: Inhibition of CYP3A4
- Assay type: ADME
Measured attribute: pIC50
Interpret pIC50 as the negative base-10 log of the concentration measured in mol/L.

Item: CC(=O)N[C@@H](Cc1cc(F)cc(F)c1)[C@H](O)CNC1(c2cccc(C(C)(C)C(F)F)c2)CC1 | pIC50: 7.34

====

Measured Papp B→A at 5 µM accompanies every entry in the list below.
- Method description: Apparent permeability from basolateral to apical side in MDCK2 cells at 5 uM
- Assay type: ADME, cell-based, Canis lupus familiaris, MDCK-II
- Test conditions: dog, MDCK
Just the number please, in ×10⁻⁶ cm/s, no unit attached.

Examples with answers:
{"Input smiles": "CC(=O)N[C@@H](Cc1cc(F)cc(F)c1)[C@H](O)CNC1(c2cccc(C(C)(C)CF)c2)CC1", "Data value": 18.6}
{"Input smiles": "CC(=O)N[C@@H](Cc1cc(F)cc(F)c1)[C@H](O)CNC1(c2cccc(-n3cccn3)c2)CCOCC1", "Data value": 4.8}
{"Input smiles": "C=C(c1cccc(C2(NC[C@@H](O)[C@H](Cc3cc(F)cc(F)c3)NC(C)=O)CC2)c1)C(F)(F)F", "Data value": 10.3}

Data point: CC(=O)N[C@@H](Cc1cc(F)cc(F)c1)[C@H](O)CNC1(c2cccc(C(C)(C)C(F)F)c2)CC1 ; Papp B→A at 5 µM = 12.2
